target: hERG receptor (Homo sapiens (Human), UniProt Q12809); test: HERGBD: inhibition of specific [3H]-Dofetilide binding to the hERG receptor; conditions: [3H]-Dofetilide binding, membranes of HEK cells with human ERG receptor; read-out: IC50
Sequence (Q12809 whole entry): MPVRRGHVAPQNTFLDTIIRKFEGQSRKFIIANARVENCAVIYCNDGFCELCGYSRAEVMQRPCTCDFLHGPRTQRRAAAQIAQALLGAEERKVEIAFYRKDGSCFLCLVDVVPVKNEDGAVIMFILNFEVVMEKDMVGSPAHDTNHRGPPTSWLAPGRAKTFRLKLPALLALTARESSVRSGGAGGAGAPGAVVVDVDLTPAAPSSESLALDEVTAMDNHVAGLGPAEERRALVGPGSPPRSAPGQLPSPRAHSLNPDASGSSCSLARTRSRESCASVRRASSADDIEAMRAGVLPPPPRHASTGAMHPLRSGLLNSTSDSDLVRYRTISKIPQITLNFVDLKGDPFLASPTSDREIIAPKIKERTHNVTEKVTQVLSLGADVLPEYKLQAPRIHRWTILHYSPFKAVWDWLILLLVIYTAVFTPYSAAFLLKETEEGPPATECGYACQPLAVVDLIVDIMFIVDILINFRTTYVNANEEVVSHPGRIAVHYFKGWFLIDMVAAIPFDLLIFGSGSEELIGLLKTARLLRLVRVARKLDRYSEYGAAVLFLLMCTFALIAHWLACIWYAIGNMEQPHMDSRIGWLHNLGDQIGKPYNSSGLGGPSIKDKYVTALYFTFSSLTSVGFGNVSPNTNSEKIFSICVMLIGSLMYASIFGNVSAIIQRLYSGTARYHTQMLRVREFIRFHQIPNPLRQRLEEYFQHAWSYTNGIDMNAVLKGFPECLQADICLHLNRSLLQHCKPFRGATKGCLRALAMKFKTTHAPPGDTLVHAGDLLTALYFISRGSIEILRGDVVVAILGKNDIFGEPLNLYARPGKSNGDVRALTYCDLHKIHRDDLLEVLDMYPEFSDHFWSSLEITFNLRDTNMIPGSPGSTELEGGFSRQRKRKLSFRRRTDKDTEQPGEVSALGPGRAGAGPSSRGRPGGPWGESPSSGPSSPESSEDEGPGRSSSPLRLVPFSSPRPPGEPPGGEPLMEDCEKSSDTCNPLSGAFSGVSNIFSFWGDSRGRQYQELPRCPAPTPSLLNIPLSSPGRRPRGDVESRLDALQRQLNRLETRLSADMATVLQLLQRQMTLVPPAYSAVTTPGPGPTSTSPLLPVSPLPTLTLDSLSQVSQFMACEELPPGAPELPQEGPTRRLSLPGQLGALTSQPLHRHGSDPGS
pIC50: −log10 of the molar value.

COMPOUND	SYSTEM_TESTED	QUAL	pIC50
CCc1c[nH]nc1Cn1cc(-c2ccc(F)c(C(F)F)c2)cn1	hERG receptor (Homo sapiens (Human), UniProt Q12809)	=	4.56
Cn1nccc1-n1cc(-c2ccc(Cl)c(Cl)c2)cn1	hERG receptor (Homo sapiens (Human), UniProt Q12809)	=	4.22
Cc1cc(Cn2cc(-c3ccc(F)c(C)c3)cn2)n(C)n1 [Example 54, Succinate]	hERG receptor (Homo sapiens (Human), UniProt Q12809)	<	4.00
CCC(CC)n1ccc(Cn2cc(-c3ccc(Cl)c(OC(F)F)c3)cn2)n1	hERG receptor (Homo sapiens (Human), UniProt Q12809)	=	4.90
Cn1ccc(Cn2cc(-c3ccc(Cl)c(C(F)F)c3)cn2)n1	hERG receptor (Homo sapiens (Human), UniProt Q12809)	=	5.31

====

Listing: IC50 of selected molecules
biological target: rat NR1/NR2B receptor (Rattus norvegicus (Rat), UniProt P35439+Q00960); experiment: NR2B binding assay: inhibition of specific [3H]-Ifenprodil binding to the rat NR1/NR2B receptor; conditions: [3H]-Ifenprodil binding, rat brain membranes
Sequence (Q00960 27-1482, other chains not shown): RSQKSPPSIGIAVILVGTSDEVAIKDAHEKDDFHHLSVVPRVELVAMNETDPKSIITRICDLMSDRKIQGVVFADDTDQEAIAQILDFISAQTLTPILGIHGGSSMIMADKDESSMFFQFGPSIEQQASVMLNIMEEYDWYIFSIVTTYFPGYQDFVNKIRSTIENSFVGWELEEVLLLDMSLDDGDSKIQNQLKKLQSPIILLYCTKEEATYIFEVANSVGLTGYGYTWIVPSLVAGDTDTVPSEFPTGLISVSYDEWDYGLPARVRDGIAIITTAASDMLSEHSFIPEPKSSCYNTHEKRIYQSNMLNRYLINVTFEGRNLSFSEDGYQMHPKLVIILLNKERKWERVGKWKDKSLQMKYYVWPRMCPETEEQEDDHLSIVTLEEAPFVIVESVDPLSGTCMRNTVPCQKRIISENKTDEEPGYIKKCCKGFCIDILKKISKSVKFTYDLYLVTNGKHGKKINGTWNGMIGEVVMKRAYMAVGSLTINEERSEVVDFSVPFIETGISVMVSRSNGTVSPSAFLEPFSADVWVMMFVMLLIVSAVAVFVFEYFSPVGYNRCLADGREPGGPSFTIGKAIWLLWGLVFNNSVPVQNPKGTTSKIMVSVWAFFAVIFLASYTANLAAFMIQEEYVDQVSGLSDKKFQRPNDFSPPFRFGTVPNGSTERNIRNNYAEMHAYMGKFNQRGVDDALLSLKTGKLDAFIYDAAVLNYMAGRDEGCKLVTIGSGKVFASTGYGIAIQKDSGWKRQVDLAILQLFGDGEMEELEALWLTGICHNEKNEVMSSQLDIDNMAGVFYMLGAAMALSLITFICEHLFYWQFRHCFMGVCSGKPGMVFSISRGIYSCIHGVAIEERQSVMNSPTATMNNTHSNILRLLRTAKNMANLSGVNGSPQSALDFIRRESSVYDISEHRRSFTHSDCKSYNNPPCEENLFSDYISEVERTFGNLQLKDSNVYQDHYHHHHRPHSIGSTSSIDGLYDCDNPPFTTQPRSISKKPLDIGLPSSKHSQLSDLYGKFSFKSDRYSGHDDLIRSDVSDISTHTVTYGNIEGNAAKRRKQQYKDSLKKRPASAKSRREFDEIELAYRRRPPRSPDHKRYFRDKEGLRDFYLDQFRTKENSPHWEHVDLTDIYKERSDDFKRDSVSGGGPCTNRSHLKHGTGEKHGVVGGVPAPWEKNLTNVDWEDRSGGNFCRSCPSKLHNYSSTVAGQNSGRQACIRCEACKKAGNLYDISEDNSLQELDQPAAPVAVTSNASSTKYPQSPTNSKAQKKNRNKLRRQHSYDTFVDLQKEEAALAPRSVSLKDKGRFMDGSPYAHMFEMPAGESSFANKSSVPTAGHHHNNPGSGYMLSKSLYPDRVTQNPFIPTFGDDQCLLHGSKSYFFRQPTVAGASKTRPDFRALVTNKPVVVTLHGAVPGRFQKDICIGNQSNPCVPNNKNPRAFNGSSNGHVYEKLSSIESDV

MOLECULE	MEASURE_UNIT	IC50
Cn1cc(Cn2cc(-c3ccc(F)c(C(F)F)c3)cn2)cn1 [Example 33]	nM	371
Cc1ccc(-c2cnn(Cc3ccn(C)n3)c2)cc1F [Example 53, Succinate]	nM	3840
Cc1cc(Cn2cc(-c3cc(F)cc(F)c3)cn2)n(C)n1 [Example 83]	nM	6020
Cc1cc(Cn2cc(-c3ccc(Cl)c(C(F)(F)F)c3)cn2)n(C)n1 [Example 29, Succinate]	nM	2540
Cn1nccc1Cn1cc(-c2ccc(Cl)cc2)cn1 [Example 76]	nM	7350
Cn1ccc(Cn2cc(-c3ccc(Cl)c(C(F)F)c3)cn2)n1 [Example 24]	nM	410
Cc1cc(Cn2cc(-c3ccc(F)c(Cl)c3)cn2)n(C)n1 [Example 62]	nM	857
CCn1cncc1Cn1cc(-c2ccc(Cl)c(C(F)F)c2)cn1 [Example 95]	nM	63.5
Fc1cc(-c2cnn(Cc3cc[nH]n3)c2)cc(C(F)F)c1 [Example 47, Succinate]	nM	203

====

target: human NR1/NR2B ion channels (Homo sapiens (Human), UniProt Q05586+Q13224); assay: HNR2BC: calcium influx assay on cloned human NR1/NR2B ion channels expressed in HEK cells; settings: HEK cells with hNR1/NR2B, 100 μM glutamate + 100 μM glycine, 3 parameter plot
Sequence (Q13224 27-1484, other chains not shown): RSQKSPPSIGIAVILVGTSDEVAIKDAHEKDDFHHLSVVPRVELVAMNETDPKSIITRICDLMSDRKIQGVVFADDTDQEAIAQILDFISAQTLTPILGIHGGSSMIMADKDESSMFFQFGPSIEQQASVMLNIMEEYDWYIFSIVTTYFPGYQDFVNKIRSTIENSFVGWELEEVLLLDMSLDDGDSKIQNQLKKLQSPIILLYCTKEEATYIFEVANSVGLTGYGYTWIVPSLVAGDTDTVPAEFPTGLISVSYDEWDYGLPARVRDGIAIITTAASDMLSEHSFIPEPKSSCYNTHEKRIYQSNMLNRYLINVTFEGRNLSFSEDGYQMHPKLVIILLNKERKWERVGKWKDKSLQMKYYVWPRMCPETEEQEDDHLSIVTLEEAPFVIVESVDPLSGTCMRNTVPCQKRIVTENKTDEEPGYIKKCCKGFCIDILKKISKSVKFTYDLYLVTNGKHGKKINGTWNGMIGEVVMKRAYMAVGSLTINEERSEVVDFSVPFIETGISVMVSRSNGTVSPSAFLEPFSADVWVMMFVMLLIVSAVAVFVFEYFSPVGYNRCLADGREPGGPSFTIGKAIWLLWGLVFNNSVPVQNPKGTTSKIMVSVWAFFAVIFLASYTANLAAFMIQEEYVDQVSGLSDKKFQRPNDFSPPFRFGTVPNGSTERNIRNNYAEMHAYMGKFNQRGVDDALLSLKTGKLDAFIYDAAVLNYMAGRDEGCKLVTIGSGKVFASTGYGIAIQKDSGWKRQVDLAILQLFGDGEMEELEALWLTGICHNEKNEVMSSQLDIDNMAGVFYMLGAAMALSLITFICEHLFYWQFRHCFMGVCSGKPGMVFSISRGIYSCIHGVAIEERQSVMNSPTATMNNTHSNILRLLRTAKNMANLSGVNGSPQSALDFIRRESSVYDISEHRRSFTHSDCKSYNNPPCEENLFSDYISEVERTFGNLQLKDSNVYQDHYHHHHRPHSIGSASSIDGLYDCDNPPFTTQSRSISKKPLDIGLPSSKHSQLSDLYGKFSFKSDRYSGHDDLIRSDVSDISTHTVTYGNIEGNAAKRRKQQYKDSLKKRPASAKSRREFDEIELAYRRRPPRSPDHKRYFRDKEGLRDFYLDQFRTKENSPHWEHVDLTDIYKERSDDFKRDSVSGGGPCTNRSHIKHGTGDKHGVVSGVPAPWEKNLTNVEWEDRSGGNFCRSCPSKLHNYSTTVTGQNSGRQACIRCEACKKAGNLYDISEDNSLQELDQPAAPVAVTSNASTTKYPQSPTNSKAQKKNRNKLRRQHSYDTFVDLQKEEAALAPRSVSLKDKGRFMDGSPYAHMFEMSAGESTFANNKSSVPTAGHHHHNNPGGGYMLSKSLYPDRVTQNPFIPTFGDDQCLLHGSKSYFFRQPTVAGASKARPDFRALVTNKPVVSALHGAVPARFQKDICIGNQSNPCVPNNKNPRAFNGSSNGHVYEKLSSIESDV
Counter-ions that a name gives are not always drawn.

MOLECULE	MEASURE_UNIT	QUAL	IC50
CCc1c[nH]nc1Cn1cc(-c2ccc(F)c(OC(F)F)c2)cn1 [Example 91, Succinate]	nM	=	1250
CCc1[nH]ncc1Cn1cc(-c2ccc(F)c(OC(F)F)c2)cn1 [Example 20, Tartrate]	nM	=	5970
Fc1ccc(-c2cnn(Cc3cc[nH]n3)c2)cc1C(F)F	nM	=	690
CCc1cc(Cn2cc(-c3ccc(Cl)c(OC(F)F)c3)cn2)n[nH]1	nM	>	10000
CC(F)(F)c1cc(-c2cnn(Cc3cc[nH]n3)c2)ccc1F [Example 44, Succinate]	nM	=	530
